PROCEDURE TEXT: Toxicity liver stage against HepG2, at 10uM
Type: cell-based
Design: test concentration 10 uM, cell line HepG2-A16-CD81EGFP
CONDITION CONTEXT: human, HepG2-A16-CD81EGFP cells; read-out: INHIBITION
List of cytotoxicity at 10 µM values.
Numeric only. Scale: %

Cc1nc(CN2CCCN(CCCc3ccccc3)CC2)no1 ... 11.3
CN(C)C(CNC(=O)NCCS(C)(=O)=O)c1ccco1 (stereo not drawn) ... 4.41
CNC(=O)CN1CCOCC2(CCCN(Cc3cccnc3)C2)C1 (stereo not drawn) ... -6.02
COC(=O)CCC(=O)NCc1cccnc1N1CCc2ccccc2C1 ... -8.09
CN(Cc1ccc(F)cc1)C(=O)NCC1(N2CCOCC2)CCSC1 (stereo not drawn) ... -21.9

Then there is this compound:
Tell me its cytotoxicity at 10 µM given CC(=O)N(C)c1nc(Cn2nnnc2C2CCCC2)cs1 as the entry.
2.11
